# SYSTEM TESTED: human NTCP (Homo sapiens)
# TEST: Screening taurocholate uptake assay (96-well, [14C]taurocholate, 10 µM drug)
# MEASUREMENT SETUP: ranking score beside the functional and binding assay B-scores of the screen
Structures can show the parent of a compound that is named as a salt.
Note to self: class = bucket of Ranking score, per c1 = under 700, c2 = from 700 up to 800, c3 = 800 and over

MOLECULE: Cc1nccn1CC1CCc2c(c3ccccc3n2C)C1=O.Cl (stereo not shown) [Ondansetron Hydrochloride]
SYSTEM TESTED: human NTCP (Homo sapiens)
GROUP: c1

MOLECULE: CNC(=O)c1c(I)c(C(=O)NCC(=O)Nc2c(I)c(C(=O)O)c(I)c(C(=O)NCCO)c2I)c(I)c(N(C)C(C)=O)c1I
SYSTEM TESTED: human NTCP (Homo sapiens)
GROUP: c2

MOLECULE: CC1CNc2c(cccc2S(=O)(=O)N[C@@H](CCCNC(=N)N)C(=O)N2CC[C@@H](C)C[C@@H]2C(=O)O)C1 (stereo partly shown)
SYSTEM TESTED: human NTCP (Homo sapiens)
GROUP: c1

**Query** Bin this entry: CCn1cc(C(=O)O)c(=O)c2cc(F)c(N3CCNC(C)C3)c(F)c21 (stereo not shown) [Lomefloxacin hydrochloride]
**Result** c3

**Query** Bin this entry: Nc1nc(N)nc(-c2cc(Cl)ccc2Cl)n1 [Irsogladine maleate]
**Result** c2

**Query** Bin this entry: CCC(=O)O[C@]1(C(=O)SCF)[C@H](C)C[C@H]2[C@@H]3C[C@H](F)C4=CC(=O)C=C[C@]4(C)[C@@]3(F)[C@@H](O)C[C@@]21C [Fluticasone propionate]
**Result** c3

**Query** Bin this entry: COc1ccc(C[C@@H](C)NC[C@H](O)c2ccc(O)c(NC=O)c2)cc1.COc1ccc(C[C@@H](C)NC[C@H](O)c2ccc(O)c(NC=O)c2)cc1.O=C(O)/C=C/C(=O)O [Formoterol fumarate]
**Result** c2

**Query** Bin this entry: CN(C)C(=N)N=C(N)N [Metformin hydrochloride]
**Result** c2

---

# SYSTEM TESTED: UniProt:Q14973
# TEST: Screening fluorescent competitive Myrcludex B-FITC binding assay (96-well, 10 µM drug)
# MEASUREMENT SETUP: Prestwick library screen, 10 µM drug; B-score of Myrcludex B-FITC binding
Counter-ions that a name gives are not always drawn.
EXPERIMENTAL ENDPOINT: B-score binding assay
Just the number, please, no unit attached.

A selection of reference data follows.
COMPOUND: COc1ccccc1N1CCN(CCCNc2cc(=O)n(C)c(=O)n2C)CC1 [Urapidil hydrochloride]
B-score binding assay: 1.015
--
COMPOUND: CC(C)(S)C(N)C(=O)O (racemic)
B-score binding assay: 0.477
--
COMPOUND: Nc1ncnc2c1ncn2[C@@H]1O[C@H](COP(=O)(O)O)[C@@H](O)[C@H]1O.O [Adenosine 5'-monophosphate monohydrate]
B-score binding assay: 2.827
--
COMPOUND: Cc1cnc(C(=O)O)c[n+]1[O-]
B-score binding assay: 0.142
--
COMPOUND: CN(Cc1ccc(C(C)(C)C)cc1)Cc1cccc2ccccc12 [Butenafine Hydrochloride]
B-score binding assay: 0.435

**Query** Any idea what B-score binding assay was measured for CC[C@@H](CO)NC(=O)[C@@H]1C=C2c3cccc4[nH]cc(c34)C[C@H]2N(C)C1 [Methylergometrine maleate] ?
**Result** 0.851

**Query** Any idea what B-score binding assay was measured for c1ccc(CN(CC2=NCCN2)c2ccccc2)cc1 [Antazoline hydrochloride] ?
**Result** 0.166

**Query** Any idea what B-score binding assay was measured for CCN(CC)C(C)C(=O)c1ccccc1 (stereo not shown) [Amfepramone hydrochloride] ?
**Result** 2.906

**Query** Any idea what B-score binding assay was measured for CN(C)CC/C=C1/c2ccccc2COc2ccc(CC(=O)O)cc21 [Olopatadine hydrochloride] ?
**Result** 0.808

**Query** Any idea what B-score binding assay was measured for CCCOc1ccc(C(=O)OCCN(CC)CC)cc1N [Proparacaine hydrochloride] ?
**Result** 1.832

**Query** Any idea what B-score binding assay was measured for "Br.COc1ccc2c(c1)[C@]13CCCC[C@@H]1[C@H](C2)N(C)CC3.O" ?
**Result** 2.674

**Query** Any idea what B-score binding assay was measured for CCOC(=O)c1cncn1[C@H](C)c1ccccc1 [Etomidate] ?
**Result** -0.068

**Query** Any idea what B-score binding assay was measured for "c1ccc2[nH]c(-c3cscn3)nc2c1" ?
**Result** 0.306

**Query** Any idea what B-score binding assay was measured for "CC(C)(Sc1cc(C(C)(C)C)c(O)c(C(C)(C)C)c1)Sc1cc(C(C)(C)C)c(O)c(C(C)(C)C)c1" ?
**Result** 3.305

**Query** Any idea what B-score binding assay was measured for "CC(C)C(=O)c1c(C(C)C)nn2ccccc12" ?
**Result** 0.677

**Query** Any idea what B-score binding assay was measured for CC1CC(OC(=O)C(O)c2ccccc2)CC(C)(C)N1C (stereo not shown) [Eucatropine hydrochloride] ?
**Result** 1.847

---

# SYSTEM TESTED: human NTCP (Homo sapiens, UniProt Q14973)
# Sequence (Q14973 1-349): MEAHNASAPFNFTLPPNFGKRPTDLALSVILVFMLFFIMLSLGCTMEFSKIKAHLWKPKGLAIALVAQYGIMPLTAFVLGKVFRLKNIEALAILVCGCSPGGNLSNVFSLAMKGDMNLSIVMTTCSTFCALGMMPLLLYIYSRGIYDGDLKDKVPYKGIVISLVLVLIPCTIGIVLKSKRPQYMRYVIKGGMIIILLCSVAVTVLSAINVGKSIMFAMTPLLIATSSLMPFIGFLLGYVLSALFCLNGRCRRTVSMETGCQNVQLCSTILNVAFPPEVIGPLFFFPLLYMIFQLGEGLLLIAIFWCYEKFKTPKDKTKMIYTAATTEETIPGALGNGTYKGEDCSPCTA
# TEST: Screening taurocholate uptake assay (96-well, [14C]taurocholate, 10 µM drug)
# MEASUREMENT SETUP: screening taurocholate uptake, 10 µM drug
Counter-ions that a name gives are not always drawn.
Documented B-score functional assay across a set of compounds
Just the number, please, no unit attached.

COMPOUND: CN1CCCC(CC2c3ccccc3Sc3ccccc32)C1 (stereo not shown) [Metixene hydrochloride]
B-score functional assay: 0.08
--
COMPOUND: CCC1(C)CC(=O)NC(=O)C1 [Bemegride]
B-score functional assay: -2.979
--
COMPOUND: COc1ccc(C(=O)NCc2ccc(OCCN(C)C)cc2)cc1OC [Itopride]
B-score functional assay: -0.688

Now look at this one.
**Query** Any idea what B-score functional assay was measured for [H]/N=C(/N)N[C@H]1[C@H](O)[C@@H](O)[C@H](O[C@@H]2O[C@@H](C)[C@](O)(C=O)[C@H]2O[C@@H]2O[C@@H](CO)[C@H](O)[C@@H](O)[C@@H]2NC)[C@@H](N/C(N)=N\[H])[C@@H]1O [Streptomycin sulfate] ?
**Result** 1.326

---

# SYSTEM TESTED: human NTCP (Homo sapiens, UniProt Q14973)
# TEST: Screening taurocholate uptake assay (96-well, [14C]taurocholate, 10 µM drug)
# MEASUREMENT SETUP: screen, 10 µM drug, taurocholate uptake
Documented B-score functional assay across a set of molecules
Just the number, please, no unit attached.

A selection of reference data follows.
MOLECULE: O=C(CCCN1CCC(n2c(O)nc3ccccc32)CC1)c1ccc(F)cc1
VAL: 0.351
//
MOLECULE: COc1cc([C@@H]2c3cc4c(cc3[C@@H](O[C@@H]3O[C@@H]5CO[C@@H](C)O[C@H]5[C@H](O)[C@H]3O)[C@H]3COC(=O)[C@H]23)OCO4)cc(OC)c1O [Etoposide]
VAL: -1.678

Now look at this one.
**Query** Any idea what B-score functional assay was measured for "O=C(O)c1cn(-c2ccc(F)cc2)c2cc(N3CCNCC3)c(F)cc2c1=O" ?
**Result** -0.49

---

# SYSTEM TESTED: human NTCP (Homo sapiens, UniProt Q14973)
# TEST: Screening fluorescent competitive Myrcludex B-FITC binding assay (96-well, 10 µM drug)
# MEASUREMENT SETUP: Prestwick library screen, Myrcludex B-FITC binding, 10 µM drug
Structures can show the parent of a compound that is named as a salt.
B-score binding assay strictly less than -0.04 = criterion met. Otherwise criterion not met.

Examples from the recorded data:
MOLECULE: CN(Cc1cnc2nc(N)nc(N)c2n1)c1ccc(C(=O)N[C@@H](CCC(=O)O)C(=O)O)cc1 [Methotrexate]
SYSTEM TESTED: human NTCP (Homo sapiens, UniProt Q14973)
GROUP: criterion not met
//
MOLECULE: Nc1ccn([C@H]2CC[C@@H](CO)O2)c(=O)n1 [Zalcitabine]
SYSTEM TESTED: human NTCP (Homo sapiens, UniProt Q14973)
GROUP: criterion met
//
MOLECULE: COC(=O)Nc1nc2cc(C(=O)c3ccc(F)cc3)ccc2[nH]1 [Flubendazol]
SYSTEM TESTED: human NTCP (Homo sapiens, UniProt Q14973)
GROUP: criterion met

**Query** Is -0.04 strictly greater than the molecule's reported B-score binding assay? molecule: Cc1nnc(SCC2=C(C(=O)O)N3C(=O)[C@@H](NC(=O)Cn4cnnn4)[C@H]3SC2)s1 [Cefazolin sodium salt]
**Result** criterion not met

**Query** Is -0.04 strictly greater than the molecule's reported B-score binding assay? molecule: NCCc1cc[nH]n1 [Betazole hydrochloride]
**Result** criterion not met
